Kindly state kon for each of the entries shown.
# test.target: T1, biotinylated CD3 epsilon:delta heterodimer protein (Amsbio AMS.CDD-H52WO) (Homo sapiens (Human), UniProt P07766 23-126; P04234 22-105)
# T1 construct: also called CD3 heterodimer
# experiment.description: BLI (Octet), CD3 on SA sensor, Fab analyte;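 further: biolayer interferometry with biotinylated CD3 epsilon:delta captured on streptavidin sensors, Fab analyte at several concentrations up to 300 nM, 100 s association then 300 s dissociation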
Please reply with the bare figure in M⁻¹ s⁻¹ and do not write the unit itself.

// fetch kon given entry huSP34.5.1 Fab-HF (Fab, V domains shown, also called HC5+LC1) VH: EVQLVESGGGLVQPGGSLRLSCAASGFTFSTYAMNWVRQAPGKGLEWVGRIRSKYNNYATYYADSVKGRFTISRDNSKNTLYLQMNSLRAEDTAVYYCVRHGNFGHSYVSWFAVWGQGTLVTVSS VL: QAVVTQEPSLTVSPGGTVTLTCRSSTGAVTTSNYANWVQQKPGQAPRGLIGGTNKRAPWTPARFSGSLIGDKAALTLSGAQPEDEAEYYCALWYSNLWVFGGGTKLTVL
311000

// fetch kon given entry huSP34.8.2 Fab-HF (Fab, V domains shown, also called HC8+LC2) VH: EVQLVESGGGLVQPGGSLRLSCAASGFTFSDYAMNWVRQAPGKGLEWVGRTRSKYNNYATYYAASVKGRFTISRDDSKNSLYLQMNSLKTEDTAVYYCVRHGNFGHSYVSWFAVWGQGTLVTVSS VL: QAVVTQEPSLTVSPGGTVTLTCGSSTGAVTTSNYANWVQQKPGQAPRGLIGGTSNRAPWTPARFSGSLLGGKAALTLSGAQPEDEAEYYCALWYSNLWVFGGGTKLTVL
172000

// fetch kon given entry huSP34.7.6 Fab-HF (Fab, V domains shown, also called HC7+LC6) VH: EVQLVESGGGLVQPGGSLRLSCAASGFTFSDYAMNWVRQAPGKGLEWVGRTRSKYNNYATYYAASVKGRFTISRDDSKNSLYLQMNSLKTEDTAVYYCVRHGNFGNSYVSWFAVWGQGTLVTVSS VL: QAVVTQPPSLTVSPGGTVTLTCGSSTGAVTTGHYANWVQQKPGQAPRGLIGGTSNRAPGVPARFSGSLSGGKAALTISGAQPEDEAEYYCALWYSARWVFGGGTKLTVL
403000
